Provenance of the data: paper PMC4788467

- test.target: biotinylated soluble HLA-A2/WT1_(126) (…) complex (Homo sapiens, HLA-A*02:01, biotin (the complex is biotinylated; site not stated))
- assay.text: SPR
measured.property: koff (s⁻¹)
Answers are plain numbers, in s⁻¹.

**Query** Please give the measured koff for this binder: S3.3 scFv (scFv, V domains shown) VH: EVQLLESGGGLVQPGGSLRLSCAASGFTFSSYAMSWVRQAPGKGLEWVSLIDPWGQETLYADSVKGRFTISRDNSKNTLYLQMNSLRAEDTAVYYCAKLTGRFDYWGQGTLVTVSS VL: NIQMTQSPSSLSASVGDRVTITCRASQSISSYLNWYQQKPGKAPKLLIYSASLLQSGVPSRFSGNGSGTDFTLTISSLQPEDFATYYCQQGPGTPNTFGQGTKVEIK
**Result** 5.35e-05
